test: Single oral dose pharmacokinetics in healthy human volunteers; assay type: in vivo; details: human, plasma; single oral dose 1.35 mg, median
Attribute Measured: Tmax (h)
Answer in h, number only, no unit symbol.

Inquiry: Look at this molecule and give its reported Tmax. c1cnc2c(c1)C[C@@]1(CN3CCC1CC3)O2 [AZD0328]
Reply text: 3.2

###

assay: Multiple dose PK/TK, dog; type: in vivo; details: male, Beagle, dog, in vivo, po, 17.3 mg/kg, dog 3M, 0295AD, 17.3 mg/kg (80 μmol/kg) split in two 6 h apart, capsules fed, day 7
Attribute Measured: Tmax at 7 day

Inquiry: Look at this compound and give its reported Tmax at 7 day. c1cnc2c(c1)C[C@@]1(CN3CCC1CC3)O2
Reply text: 6.5 to 7 h

###

assay: Single dose PK/TK, rhesus monkey; type: in vivo; conditions: both sexes, in vivo; rhesus monkey 2M+2F, 03.330/1, iv 3.85 mg/kg (17.8 μmol/kg); read-out: T½ (converted)
Attribute Measured: half-life (h)
Answer in h, number only, no unit symbol.

Inquiry: Look at this molecule and give its reported half-life. c1cnc2c(c1)C[C@@]1(CN3CCC1CC3)O2
Reply text: 2.14

###

Assay: Multiple dose PK/TK, rat
Assay type: in vivo
Conditions: male, rat, in vivo, po, 15.1 mg/kg, rat 4M, 0612AR, 15.1 mg/kg (70 μmol/kg), day 1
Description: This section provides a summary of the pharmacokinetic and metabolism properties of AZD0328 derived from in vivo studies. […] The derived PK/TK parameters from these studies are presented in Table 4 for single dose studies (DMR4, 0619LR, 20030191PCR, DMO16, DMB10, DMW12, 50190, 0190DD and 03.330/1), and are presented in Table 5 multiple dose PK/TK studies (DMR4, 0612AR, DMB15, 50190, 0190DD and 0295AD).
Attribute Measured: Tmax at 1 day

Inquiry: Look at this compound and give its reported Tmax at 1 day. c1cnc2c(c1)C[C@@]1(CN3CCC1CC3)O2
Reply text: 1 to 3 h

###

assay: Single dose PK/TK, ferret; conditions: male, in vivo; ferret 4M, DMO16, single oral 10 mg/kg (46 μmol/kg)
Attribute Measured: Tmax

Inquiry: Look at this compound and give its reported Tmax. c1cnc2c(c1)C[C@@]1(CN3CCC1CC3)O2
Reply text: 15 to 60 min

###

assay: Cardiovascular/ECG telemetry in dogs; assay type: in vivo; conditions: in vivo, oral; dog, low dose group, day 7 (lowest); read-out: total Cmax
Attribute Measured: Cmax
Returns: string containing the numeric result and its unit.

Inquiry: Look at this compound and give its reported Cmax. c1cnc2c(c1)C[C@@]1(CN3CCC1CC3)O2
Reply text: 800 nM

###

experiment: Single dose PK/TK, rhesus monkey; format: in vivo; conditions: both sexes, plasma; rhesus monkey 2M+2F, 03.330/1, iv 0.385 mg/kg (1.78 μmol/kg); read-out: Vss
Attribute Measured: Vd
Returns: string containing the numeric result and its unit.

Inquiry: Look at this compound and give its reported Vd. c1cnc2c(c1)C[C@@]1(CN3CCC1CC3)O2
Reply text: 3.29 L/kg

###

assay: Multiple dose PK/TK, dog; format: in vivo; conditions: both sexes, dog, in vivo, po, 34.6 mg/kg, dog 2F+2M, 0190DD, 34.6 mg/kg (160 μmol/kg) split in two 6 h apart, capsules fasted, day 1
Attribute Measured: Tmax

Inquiry: Look at this compound and give its reported Tmax. c1cnc2c(c1)C[C@@]1(CN3CCC1CC3)O2 [AZD0328]
Reply text: 1 to 3 h

Value source: patent US20080242688A1
